// provenance: the supplement of paper PMC10724198

- Tested on: Saccharomyces cerevisiae
- assay.comment: protein stability index of tFT-peptide fusion (C-terminal peptide) (PSI (0-1 scale)); higher = more stable (slower turnover)
- cond: genetic background: doa10 deletion; temperature: 30 C
Measured protein stability index accompanies every entry in the list below.
quantity.kind: protein stability index

{"sequence.data": "VSCFIVSFWVFL", "quantity.kind": "protein stability index", "value.observed": 0.309}
{"sequence.data": "FFLSFICVMLCG", "quantity.kind": "protein stability index", "value.observed": 0.165}
{"sequence.data": "QWRSWSFATLVT", "quantity.kind": "protein stability index", "value.observed": 0.22}

###

Measured protein stability index accompanies every entry in the list below.
- Test system: Saccharomyces cerevisiae
- assay.comment: protein stability index of tFT-peptide fusion (C-terminal peptide) (PSI (0-1 scale)); higher = more stable (slower turnover)
- cond: genetic background: wild type; temperature: 30 C
quantity.kind: protein stability index

{"sequence.data": "SSRSMKKKKVKI", "value.observed": 0.703}
{"sequence.data": "DDGGSVTERDKS", "value.observed": 0.649}
{"sequence.data": "QPSRQTIPWDTV", "value.observed": 0.738}
{"sequence.data": "SLFSVLSPPYPS", "value.observed": 0.653}
{"sequence.data": "RKTSIKNKKKKI", "value.observed": 0.693}
{"sequence.data": "WWGSGGREPGGS", "value.observed": 0.739}
{"sequence.data": "SVGLQLAFSAAV", "value.observed": 0.728}

###

Measured protein stability index accompanies every entry in the list below.
- Tested on: Saccharomyces cerevisiae
- assay.comment: protein stability index of tFT-peptide fusion (C-terminal peptide) (PSI (0-1 scale)); higher = more stable (slower turnover)
- cond: genetic background: cdc53-1; temperature: 37 C
quantity.kind: protein stability index

{"sequence.data": "GHFILFWVFCFM", "quantity.kind": "protein stability index", "value.observed": 0.39}
{"sequence.data": "RVTEYHTKYKIV", "quantity.kind": "protein stability index", "value.observed": 0.673}
{"sequence.data": "IFRVTGFPIYIF", "quantity.kind": "protein stability index", "value.observed": 0.36}
{"sequence.data": "VAWFFFAYAFFM", "quantity.kind": "protein stability index", "value.observed": 0.451}
{"sequence.data": "GCVGLSFCVWVG", "quantity.kind": "protein stability index", "value.observed": 0.502}
{"sequence.data": "VPRSLYSVLRLA", "quantity.kind": "protein stability index", "value.observed": 0.685}
{"sequence.data": "LSLLILFVLLSF", "quantity.kind": "protein stability index", "value.observed": 0.476}
{"sequence.data": "PVHARYCSLKWA", "quantity.kind": "protein stability index", "value.observed": 0.741}
{"sequence.data": "SVSFFSLCTSSL", "quantity.kind": "protein stability index", "value.observed": 0.596}

###

Measured protein stability index accompanies every entry in the list below.
- System: Saccharomyces cerevisiae
- assay.comment: protein stability index of tFT-peptide fusion (C-terminal peptide) (PSI (0-1 scale)); higher = more stable (slower turnover)
- cond: genetic background: wild type; temperature: 30 C

{"sequence.data": "RVSLGHGRAFWP", "protein stability index": 0.711}
{"sequence.data": "NSPRKKPHKSIT", "protein stability index": 0.711}
{"sequence.data": "SLAGWPPPSIST", "protein stability index": 0.686}
{"sequence.data": "HPLFCPPPPPLA", "protein stability index": 0.708}
{"sequence.data": "SVCFPPCSSLPP", "protein stability index": 0.71}

###

- System: Saccharomyces cerevisiae
- assay.comment: protein stability index of tFT-peptide fusion (C-terminal peptide) (PSI (0-1 scale)); higher = more stable (slower turnover)
- cond: genetic background: wild type; temperature: 30 C
Measured protein stability index accompanies every entry in the list below.

{"sequence.data": "WVPGAAGFTGSL", "protein stability index": 0.74}
{"sequence.data": "LCCMFGLAGRGV", "protein stability index": 0.654}
{"sequence.data": "GDVLLLVGAGER", "protein stability index": 0.706}
{"sequence.data": "STRRTSKCHQGI", "protein stability index": 0.711}
{"sequence.data": "PPLPSPPPPSSP", "protein stability index": 0.716}
{"sequence.data": "TSGPVSCLCECL", "protein stability index": 0.598}
{"sequence.data": "KERLLTLHSHSH", "protein stability index": 0.71}
{"sequence.data": "PLPLPPPPPLPL", "protein stability index": 0.657}
{"sequence.data": "PYIFLPLGRAGN", "protein stability index": 0.723}
{"sequence.data": "FVGCVNIFLSWG", "protein stability index": 0.51}
{"sequence.data": "LLLASSFFTLIL", "protein stability index": 0.687}
{"sequence.data": "LGVLRALLGEGM", "protein stability index": 0.688}
{"sequence.data": "LPLPVLPCVPPV", "protein stability index": 0.595}
{"sequence.data": "KKKKKQRNQKAK", "protein stability index": 0.612}
{"sequence.data": "APRLRRHPPHEP", "protein stability index": 0.696}
{"sequence.data": "SLGAHHAAFRVV", "protein stability index": 0.63}
{"sequence.data": "FLCLLFYLSFFS", "protein stability index": 0.415}
{"sequence.data": "DERREADLYPGE", "protein stability index": 0.648}
{"sequence.data": "PSPRRPPRSRFP", "protein stability index": 0.732}
{"sequence.data": "RPEVRTGPASTH", "protein stability index": 0.676}
{"sequence.data": "VCGGGEGGERGG", "protein stability index": 0.799}
{"sequence.data": "VVHATITGPVRS", "protein stability index": 0.635}
{"sequence.data": "NRKGNKGEKNTK", "protein stability index": 0.676}
{"sequence.data": "RWAAAVPLLVVG", "protein stability index": 0.211}
{"sequence.data": "SMWKQIRVYGLW", "protein stability index": 0.636}
{"sequence.data": "RVWERGRGGDGC", "protein stability index": 0.679}
{"sequence.data": "VPGWRVGGARSV", "protein stability index": 0.746}
{"sequence.data": "SGGSGGSCMRYV", "protein stability index": 0.691}
{"sequence.data": "QILVSYSFLYFF", "protein stability index": 0.509}
{"sequence.data": "HPPPTLVPPHPR", "protein stability index": 0.616}
{"sequence.data": "KDKRKAETKSRN", "protein stability index": 0.688}
{"sequence.data": "REGRTRGTAAER", "protein stability index": 0.679}
{"sequence.data": "KKEISSTAGIIV", "protein stability index": 0.637}
{"sequence.data": "PPPLPPPPPLPP", "protein stability index": 0.589}
{"sequence.data": "PLPSQYANPMIL", "protein stability index": 0.664}
{"sequence.data": "GLCRLLEILKLR", "protein stability index": 0.63}
{"sequence.data": "QTQTAKEWAYHP", "protein stability index": 0.686}
{"sequence.data": "GKECLIRKSHDG", "protein stability index": 0.674}
{"sequence.data": "INLVKRQTVKPP", "protein stability index": 0.611}
{"sequence.data": "LSSQCIVQLFRA", "protein stability index": 0.64}
{"sequence.data": "GGRLGRAGGGGR", "protein stability index": 0.639}

###

Measured protein stability index accompanies every entry in the list below.
- Tested on: Saccharomyces cerevisiae
- assay.comment: protein stability index of tFT-peptide fusion (C-terminal peptide) (PSI (0-1 scale)); higher = more stable (slower turnover)
- cond: genetic background: wild type; temperature: 30 C

{"sequence.data": "SPPLPPLPSVAF", "protein stability index": 0.637}
{"sequence.data": "GRGEKKKGAKKI", "protein stability index": 0.728}
{"sequence.data": "KAQKKGRHSKEL", "protein stability index": 0.712}
{"sequence.data": "PNPPPPRPTPTP", "protein stability index": 0.669}
{"sequence.data": "STVHLPAPAWGS", "protein stability index": 0.707}
{"sequence.data": "MLFALLTIVFLG", "protein stability index": 0.295}
{"sequence.data": "KTKVIFMYKKGQ", "protein stability index": 0.675}
{"sequence.data": "VVFVGRSIVVLT", "protein stability index": 0.419}
{"sequence.data": "ANECYAEDREIR", "protein stability index": 0.69}
{"sequence.data": "AWEPGGVVAVLL", "protein stability index": 0.621}
{"sequence.data": "MALAVRVVICGA", "protein stability index": 0.169}
{"sequence.data": "CGLRGAGCLARD", "protein stability index": 0.637}

###

- Tested on: Saccharomyces cerevisiae
- assay.comment: protein stability index of tFT-peptide fusion (C-terminal peptide) (PSI (0-1 scale)); higher = more stable (slower turnover)
- cond: genetic background: wild type; temperature: 30 C
Measured protein stability index accompanies every entry in the list below.

{"sequence.data": "QNNNILNDMRVN [SPT23 C-terminal 12 aa]", "protein stability index": 0.689}
{"sequence.data": "AKFFIPFSHSSP [YPL185W C-terminal 12 aa]", "protein stability index": 0.705}
{"sequence.data": "HATTVIDGKIKV [YHI9 C-terminal 12 aa]", "protein stability index": 0.688}
{"sequence.data": "GDYSFNGRVTDF [SDH8 C-terminal 12 aa]", "protein stability index": 0.697}
{"sequence.data": "ARGRRRSKGFKV [RPL18A C-terminal 12 aa]", "protein stability index": 0.696}
{"sequence.data": "LIHASSVEQATA [MRPL4 C-terminal 12 aa]", "protein stability index": 0.699}
{"sequence.data": "HLSGSTIDTTVV [DSE1 C-terminal 12 aa]", "protein stability index": 0.685}
{"sequence.data": "RGENGQFWIGTK [BNI5 C-terminal 12 aa]", "protein stability index": 0.702}
{"sequence.data": "RAVTNRSSCSRR [YCR038W-A C-terminal 12 aa]", "protein stability index": 0.689}
